- Test system: OVCAR-5
- assay_info: NCI tumour cell line growth inhibition, 48 h
Calls of active or inactive are those of the source. Rule as the data show it: active = GI50 up to about 1.1 µM and inactive = higher.
experimental_readout: GI50

                                    molecule  experimental_readout           test_value
 0   C/C(=N\NC(=S)Nc1ccccc1)c1nc2cccnc2[nH]1                  GI50   4.79 µM (inactive)
 1             COc1cc(C2(C)SCCCS2)cc(OC)c1OC                  GI50  > 100 µM (inactive)
 2  CC(C)N(C(=O)C1(O)c2ccccc2C=Cc2ccccc21)C(C)C                  GI50   14.4 µM (inactive)
 3  CCCCCCCCOC1C(O)C(O)C(O)C(O)C12CO2 (stereo not drawn)                  GI50   > 10 µM (inactive)
 4  COC(=O)/C=C\COCC1C2CCC(=O)C21 (stereo not drawn)                  GI50   > 25 µM (inactive)
 5    CC(C)(C)OC(=O)N[C@H]1CCN(C2CCCCC2)C1=O                  GI50  > 100 µM (inactive)
 6                      CCCNc1ncnc2[nH]ncc12                  GI50  > 100 µM (inactive)
 7  Nc1nc(-c2ccc3ccccc3c2)cc(-c2cc(-c3ccc4ccccc4c3)nc(N)n2)n1                  GI50  > 100 µM (inactive)
 8  O=c1cc(O)c2ccccc2o1 [4-HYDROXYCOUMARINS]                  GI50  > 100 µM (inactive)
 9  Nc1nc(SCc2ccccc2[N+](=O)[O-])c2[nH]cnc2n1                  GI50   42.3 µM (inactive)
10  CC1C(c2cc(C(C)(C)C)c(O)c(C(C)(C)C)c2)c2cc3c(cc2OC1N1CCOCC1)OCO3 (stereo not drawn)                  GI50  > 100 µM (inactive)
11  CC(C)CC(NC(=O)OC(C)(C)C)C(=O)Nc1ccc(Nc2nc(F)nc(-c3c4ccccc4cn3C)n2)cc1 (stereo not drawn)                  GI50  > 100 µM (inactive)
12            Cc1nc(N)nc(N)c1CCCCc1ccc(N)cc1                  GI50   4.46 µM (inactive)
13  Cc1cccc(-c2nc3ccc([N+](=O)[O-])cc3c(=O)o2)c1                  GI50  > 100 µM (inactive)
14  CCCCCCCCCCCCn1[nH]c(C)c(C(=S)SCCCCCCCC)c1=O                  GI50  > 100 µM (inactive)
15  COc1cccc(/C=N/C(/N=C/c2cccc(OC)c2O)c2cccc(OC)c2O)c1O                  GI50     22 µM (inactive)
16                CC(C)CNc1nc2ncnc(N)c2[nH]1                  GI50  > 100 µM (inactive)
17  Cc1cc2nnn(C3CCCO3)c2cc1C (stereo not drawn)                  GI50  > 100 µM (inactive)
18  CC1(C)OC2OC(COC(=O)C(c3ccccc3)c3ccccc3)C3OC(C)(C)OC3C2O1 (stereo not drawn)                  GI50   > 10 µM (inactive)
19  OCCNCCN1CCN(CCCN2c3ccccc3Sc3ccc(C(F)(F)F)cc32)CC1                  GI50   25.5 µM (inactive)
20              Cc1n2nc(N)sc2n[n+]1Cc1ccccc1                  GI50  > 100 µM (inactive)
21  Cc1cccc(N2C(=O)/C(=C/c3ccc(N(CCC#N)CCC#N)cc3C)N=C2c2cc([N+](=O)[O-])ccc2Cl)c1                  GI50  > 100 µM (inactive)
22  COCC1OC(N2C(=O)NC(=O)[C@@H]3C=C4CCCCC4=C[C@@H]32)C(OC)C1OC (stereo partly drawn)                  GI50  > 100 µM (inactive)
23  O=C(c1ccco1)N(C(=S)N1CCN(c2ccccc2)CC1)c1ccccc1                  GI50  > 100 µM (inactive)
24  COc1c(CC(C)O)c2c3c(CC(C)O)c(OC)c(=O)c4c(O)cc5c(c6c(cc(O)c(c1=O)c62)OCO5)c43 (stereo not drawn)                  GI50   2.88 µM (inactive)
25  COc1ccc(-n2c(C)nc3ccc(NC4OC(COC(C)=O)C(OC(C)=O)C(OC(C)=O)C4OC(C)=O)cc3c2=O)cc1 (stereo not drawn)                  GI50  > 100 µM (inactive)
26              O=C1C=CC(=O)c2c1cc1ccccc1c2O                  GI50   18.4 µM (inactive)
27  COC(=O)C1=C(C(=O)OC)SC(=C2S[C@@H]3[C@@H]4C[C@H]([C@@H]3S2)[C@H]2C(=O)OC(=O)[C@@H]42)S1                  GI50  > 100 µM (inactive)
28  NC(=O)N/N=C(\CC1OC(=O)c2ccccc21)c1ccco1 (stereo not drawn)                  GI50  > 100 µM (inactive)
29  COC(=O)C(C(=O)C(=O)Nc1nc2ccc([N+](=O)[O-])cc2s1)c1nc2ccc(Cl)cc2nc1O (stereo not drawn)                  GI50  > 100 µM (inactive)
30  COc1cc(S(=O)(=O)Nc2ccc(-c3csc(N4C(=O)C(Cl)C4c4ccccc4O)n3)cc2)ccc1Cl (stereo not drawn)                  GI50   47.8 µM (inactive)
31   CC1OC1C(=O)P(=O)(O)O (stereo not drawn)                  GI50  > 100 µM (inactive)
32  O=C1Nc2ccccc2C1S(=O)(=O)c1ccccc1 (stereo not drawn)                  GI50  > 100 µM (inactive)
33  N#Cc1c(N2CCN(c3ccc([N+](=O)[O-])cc3)CC2)[n+]([O-])c2ccc(-c3ccc([N+](=O)[O-])cc3)cc2[n+]1[O-]                  GI50   30.7 µM (inactive)
34  O=C(NCCCNCCCCNCCCNC(=O)C(F)(F)F)C(F)(F)F                  GI50  > 100 µM (inactive)
35     Clc1ccc(/N=C/c2cc3cc(Br)ccc3nc2Cl)cc1                  GI50   > 50 µM (inactive)
36    O=C1Oc2ccccc2C(=O)/C1=C\NC(=S)c1ccncc1                  GI50  > 100 µM (inactive)
37         COc1ccc(/C=C/C(=O)c2sc(N)nc2C)cc1                  GI50  > 100 µM (inactive)
38                 COc1cc(=O)oc(/C=C/C=O)c1C                  GI50   38.3 µM (inactive)
39  O=C(O[C@@H](/C=C/c1ccccc1)P1(=O)N(Cc2ccccc2)[C@@H]2CCCC[C@H]2N1Cc1ccccc1)c1ccccc1                  GI50   4.86 µM (inactive)
40                       Cc1ccc2ccc(=O)oc2c1                  GI50  > 100 µM (inactive)
41                  Cc1ccc(/C=N/Nc2ccccn2)s1                  GI50  > 100 µM (inactive)
42   CCOC(=O)C(=O)Nc1ccc([N+](=O)[O-])cc1C#N                  GI50  > 100 µM (inactive)
